- System: orexin nerve cells differentiated from human iPS cells
- EXPERIMENT: Protection or recovery of orexin nerve cells under high glucose by various ManNAc derivatives (Example 3)
- Assay type: cell-based
- EXPERIMENTAL CONDITIONS: 12-day course: high glucose 25 mM from day 0, compound 1 μM added from +day 8, harvested +day 12
MEASURED PROPERTY: recovery activity of orexin production (Hcrt expression intensity)

| COMPOUND | TARGET SYSTEM | READOUT VALUE |
| --- | --- | --- |
| COC(=O)NC1C(O)OC(CO)[C@@H](O)C1O (some centres unmarked) [ManNCOOMe] | orexin nerve cells differentiated from human iPS cells | low activity |
| CC(=O)NC1C(O)SC(CO)[C@@H](O)[C@@H]1O (stereo partly drawn) [5S-ManNAc] | orexin nerve cells differentiated from human iPS cells | low activity |
| CCOC(=O)NC1C(O)OC(CO)[C@@H](O)C1O (some centres unmarked) [ManNCOOEt] | orexin nerve cells differentiated from human iPS cells | low activity |

* * *

- Test system: orexin nerve cells differentiated from human iPS cells
- EXPERIMENT: Disappearance of orexin nerve cells under high glucose concentration and protection or recovery from disappearance (Example 1)
- Assay type: cell-based
- EXPERIMENTAL CONDITIONS: culture under high glucose concentration extended for 2 or 4 more days, compound then added to the medium
MEASURED PROPERTY: recovery of orexin nerve cells (expression of orexin)

| MOLECULE | READOUT VALUE |
| --- | --- |
| NC(=O)C1CCCc2c1[nH]c1ccc(Cl)cc21 (stereo not shown) [EX-527, reference compound] | completely ineffective |
| CC(=O)N[C@H]1[C@@H](OCc2ccccc2)O[C@H](CO)[C@H](O)[C@@H]1O [BADGP, reference compound] | completely ineffective |
